- study_target: human VR1 (Homo sapiens, UniProt Q8NER1)
- Construct: expressed in transfected cells; host or cells: HEK293
- Sequence (Q8NER1 whole entry): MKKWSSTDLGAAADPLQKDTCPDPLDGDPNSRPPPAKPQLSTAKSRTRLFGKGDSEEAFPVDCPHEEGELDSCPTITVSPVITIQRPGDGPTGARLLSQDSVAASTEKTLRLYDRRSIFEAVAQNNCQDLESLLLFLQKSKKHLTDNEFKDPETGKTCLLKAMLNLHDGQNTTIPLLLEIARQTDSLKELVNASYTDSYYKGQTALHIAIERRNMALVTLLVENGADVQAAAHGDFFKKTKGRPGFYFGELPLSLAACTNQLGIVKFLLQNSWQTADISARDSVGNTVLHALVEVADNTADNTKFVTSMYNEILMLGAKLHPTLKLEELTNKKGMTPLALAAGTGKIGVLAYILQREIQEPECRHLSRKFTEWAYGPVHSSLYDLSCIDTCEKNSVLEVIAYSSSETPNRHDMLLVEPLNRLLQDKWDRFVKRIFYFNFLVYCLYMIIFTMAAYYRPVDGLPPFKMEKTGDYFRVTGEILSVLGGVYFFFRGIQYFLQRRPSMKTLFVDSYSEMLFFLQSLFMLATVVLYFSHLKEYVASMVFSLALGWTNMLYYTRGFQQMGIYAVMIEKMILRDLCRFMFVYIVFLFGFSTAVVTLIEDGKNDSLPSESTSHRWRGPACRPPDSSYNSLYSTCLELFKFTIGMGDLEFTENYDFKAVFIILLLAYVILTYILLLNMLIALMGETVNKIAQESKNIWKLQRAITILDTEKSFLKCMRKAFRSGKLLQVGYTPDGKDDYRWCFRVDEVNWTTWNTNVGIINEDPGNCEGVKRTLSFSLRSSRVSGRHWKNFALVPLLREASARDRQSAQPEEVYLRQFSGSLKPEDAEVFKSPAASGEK
- test_summary: Human VR1 functional assay (FLIPR intracellular Ca2+)
- Assay type: cell-based
- details: agonist response, 12 μM; read-out: % Response Relative to EC80 of Capsaicin (12 μM)
Each entry gets n if its Emax at 12 µM stays under 80%, and y if its Emax at 12 µM is 80% or above.

# smiles_representation, group
measured = [
    ("CC(C)(C)c1ccc(CCC(=O)Nc2ccc(-c3cncnc3)cc2)cc1", "y"),
    ("CC(C)(C)c1ccc(CCC(=O)Nc2ccc(-c3ccncc3)nc2)cc1", "y"),
    ("CC(=O)Nc1cccc(-c2ccc(NC(=O)CCc3ccc(C(C)(C)C)cc3)cc2)c1", "y"),
    ("CC(C)(C)c1ccc(CCC(=O)Nc2ccc(-c3cccc(OCCN)c3)cc2)cc1", "y"),
    ("CC(C)(C)c1ccc(CCC(=O)Nc2ccc(-c3ccc(O)cc3)cc2)cc1", "n"),
    ("O=C(CCc1ccc(C(F)(F)F)cc1)Nc1ccc(-c2ccc(O)cc2)nc1", "n"),
    ("O=C(CCc1ccc(C(F)(F)F)cc1)Nc1ccc(-c2ccccc2O)cc1", "n"),
    ("CC(C)(C)c1ccc(CCC(=O)Nc2ccc(-c3cccc(N)c3)cc2)cc1", "n"),
    ("CC(C)(C)c1ccc(CCC(=O)Nc2ccc(-c3cccc(NC(N)=O)c3)cc2)cc1", "y"),
    ("CC(C)(C)c1ccc(CCC(=O)Nc2ccc(-c3cccc(O)c3)cc2)s1", "y"),
    ("CC(C)(C)c1ccc(CCC(=O)Nc2cccc(-c3ccncc3)c2)cc1", "n"),
    ("CC(C)(C)OC(=O)Nc1cccc(-c2ccc(NC(=O)CCc3ccc(C(C)(C)C)cc3)cc2)c1", "n"),
    ("O=C(CCc1ccc(C(F)(F)F)cc1)Nc1ccc(-c2ccc(CO)cc2)cc1", "n"),
    ("CC(=O)Nc1cccc(-c2ccc(NC(=O)CCc3ccc(C(C)(C)C)cc3)cc2F)c1", "y"),
    ("CC(C)(C)c1ccc(CCC(=O)Nc2ccc(-c3ccncc3)cc2)cc1", "y"),
]
